# credit: ChEMBL document CHEMBL1681669

Target: UniProt:P42330
Sequence (P42330 whole entry): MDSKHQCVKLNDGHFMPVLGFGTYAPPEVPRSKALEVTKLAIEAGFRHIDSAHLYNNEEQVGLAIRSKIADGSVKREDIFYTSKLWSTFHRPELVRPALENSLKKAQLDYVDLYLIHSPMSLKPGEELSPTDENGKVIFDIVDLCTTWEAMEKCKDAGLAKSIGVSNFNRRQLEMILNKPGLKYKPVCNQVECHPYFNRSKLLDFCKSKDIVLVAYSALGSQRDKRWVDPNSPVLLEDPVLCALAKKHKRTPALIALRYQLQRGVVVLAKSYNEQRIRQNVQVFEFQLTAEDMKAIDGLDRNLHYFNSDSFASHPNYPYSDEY
Assay: Inhibition of PGF synthase in IL1-beta treated human A549 cell microsome assessed as inhibition of PGF2alpha production after 1 min in presence of 50% FBS

- smiles-str: "CC(C)NC(=O)N(Cc1cccc(C#Cc2ccc(C(F)(F)F)cc2)c1)Cc1cccc(C#Cc2cccnc2)c1"
  system: "UniProt:P42330"
  IC50: "10.6 µM"
- smiles-str: "CC(C)NC(=O)N(Cc1cccc(C#Cc2ccc(Cl)cc2)c1)Cc1cccc(C#Cc2cccnc2)c1"
  system: "UniProt:P42330"
  IC50: "8.6 µM"
- smiles-str: "CC(C)NC(=O)N(Cc1cccc(C#Cc2ccncc2)c1)Cc1cccc(C#Cc2ccc(Cl)cc2)c1"
  system: "UniProt:P42330"
  IC50: "10.7 µM"
- smiles-str: "CC(C)NC(=O)N(Cc1cccc(C#Cc2ccc(Cl)cc2)c1)Cc1cccc(C#Cc2ccccn2)c1"
  system: "UniProt:P42330"
  IC50: "17.6 µM"
- smiles-str: "N#Cc1cccc(C#N)c1-c1nc2c3ccc(Cl)cc3c3ccccc3c2[nH]1"
  system: "UniProt:P42330"
  IC50: "> 50 µM"

----------
Target: Prostaglandin E synthase (Homo sapiens, UniProt O14684)
Sequence (O14684 whole entry): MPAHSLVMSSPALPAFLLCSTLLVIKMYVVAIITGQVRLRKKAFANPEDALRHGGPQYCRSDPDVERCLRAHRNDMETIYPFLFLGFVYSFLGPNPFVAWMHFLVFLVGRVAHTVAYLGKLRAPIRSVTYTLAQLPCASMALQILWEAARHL
Assay: Inhibition of mPGES1
pIC50: −log10 of the molar value.

- smiles-str: "CC(C)NC(=O)N(Cc1cccc(C#Cc2ccccc2)c1)Cc1cncc(C#CC2CCCC2)c1"
  system: "Prostaglandin E synthase (Homo sapiens, UniProt O14684)"
  pIC50: 8.52
- smiles-str: "CC(C)NC(=O)N(Cc1ccccc1)Cc1cccc(OCc2ccccc2)c1"
  system: "Prostaglandin E synthase (Homo sapiens, UniProt O14684)"
  pIC50: 5.96
- smiles-str: "CCC(CC)NC(=O)N(Cc1ccccc1)Cc1cccc(C#Cc2ccccc2)c1"
  system: "Prostaglandin E synthase (Homo sapiens, UniProt O14684)"
  pIC50: 7.51
- smiles-str: "CC(C)NC(=O)N(Cc1cccc(C#Cc2ccncc2)c1)Cc1cccc(C#Cc2ccc(Cl)cc2)c1"
  system: "Prostaglandin E synthase (Homo sapiens, UniProt O14684)"
  pIC50: 8.70
- smiles-str: "O=C(NCC1CC1)N(Cc1ccccc1)Cc1cccc(C#Cc2ccccc2)c1"
  system: "Prostaglandin E synthase (Homo sapiens, UniProt O14684)"
  pIC50: 7.32
- smiles-str: "CC(C)NC(=O)N(Cc1ccccc1)Cc1cccc(C#Cc2ccccc2)c1"
  system: "Prostaglandin E synthase (Homo sapiens, UniProt O14684)"
  pIC50: 8.10
- smiles-str: "COc1ccc(CN(Cc2cccc(C#Cc3ccccc3)c2)C(=O)NC(C)C)cc1"
  system: "Prostaglandin E synthase (Homo sapiens, UniProt O14684)"
  pIC50: 6.82
- smiles-str: "O=C(NC1CC1)N(Cc1ccccc1)Cc1cccc(C#Cc2ccccc2)c1"
  system: "Prostaglandin E synthase (Homo sapiens, UniProt O14684)"
  pIC50: 7.49
- smiles-str: "CC(C)NC(=O)N(Cc1ccccc1)Cc1cccc(C#Cc2ccc(Cl)cc2)c1"
  system: "Prostaglandin E synthase (Homo sapiens, UniProt O14684)"
  pIC50: 7.66
- smiles-str: "O=C(NC1CCC1)N(Cc1ccccc1)Cc1cccc(C#Cc2ccccc2)c1"
  system: "Prostaglandin E synthase (Homo sapiens, UniProt O14684)"
  pIC50: 7.92

----------
Target: Prostaglandin E synthase (Homo sapiens, UniProt O14684)
Assay: Inhibition of mPGES1 in IL1-beta treated human A549 cell microsome assessed as inhibition of PGE2 production after 1 min in presence of 50% FBS
Assay type: cell-based
Reported IC50 values are given for each entry in this list.
readout-kind: IC50 (µM)

- smiles-str: "CC(C)NC(=O)N(Cc1cccc(C#Cc2ccccc2)c1)Cc1cccc(-c2ccccc2)c1"
  obs-value: 3.7
- smiles-str: "CC(C)NC(=NC#N)N(Cc1ccccc1)Cc1cccc(C#Cc2ccccc2)c1"
  obs-value: 1.6
- smiles-str: "COc1ccc(CN(Cc2cccc(C#Cc3ccccc3)c2)C(=O)NC(C)C)cc1"
  obs-value: 14.8
- smiles-str: "CC(C)NC(=O)N(Cc1cccc(C#Cc2ccc(C(F)(F)F)cc2)c1)Cc1cccc(C#Cc2cccnc2)c1"
  obs-value: 0.33
- smiles-str: "O=C(NC1CC1)N(Cc1ccccc1)Cc1cccc(C#Cc2ccccc2)c1"
  obs-value: 5.2
- smiles-str: "CC(C)NC(=O)N(Cc1cccc(C#Cc2ccccc2)c1)Cc1cncc(C#Cc2ccccc2)c1"
  obs-value: 0.36
- smiles-str: "CC(C)NC(=O)N(Cc1cccc(C#Cc2ccccc2)c1)Cc1cccc(C(F)(F)F)c1"
  obs-value: 4.1
- smiles-str: "COc1cccc(CN(Cc2cccc(C#Cc3ccccc3)c2)C(=O)NC(C)C)c1"
  obs-value: 3.6
- smiles-str: "CC(C)NC(=O)N(Cc1cccc(C#Cc2ccccc2)c1)Cc1cncc(C#CC2CC2)c1"
  obs-value: 0.49
- smiles-str: "CC(C)NC(=O)N(Cc1ccccc1)Cc1cccc(Oc2ccccc2)c1"
  obs-value: 8.6
- smiles-str: "CC(C)NC(=O)N(Cc1ccccc1)Cc1cccc(C#Cc2ccccc2)c1"
  obs-value: 0.91
- smiles-str: "Cc1cccc(CN(Cc2cccc(C#Cc3ccccc3)c2)C(=O)NC(C)C)c1"
  obs-value: 3
- smiles-str: "CC(C)NC(=O)N(Cc1ccccc1)Cc1cccc(C#Cc2ccc(C(F)(F)F)cc2)c1"
  obs-value: 0.99

----------
Target: Prostaglandin E synthase (Homo sapiens, UniProt O14684)
Assay: Inhibition of mPGES1
pIC50: −log10 of the molar value.
pIC50 of 7 or higher: Yes. Under 7: No.

- smiles-str: "CCCNC(=O)N(Cc1ccccc1)Cc1cccc(C#Cc2ccccc2)c1"
  label-value: "Yes"
- smiles-str: "CC(C)NC(=N)N(Cc1ccccc1)Cc1cccc(C#Cc2ccccc2)c1"
  label-value: "No"
- smiles-str: "CC(C)NC(=O)N(Cc1cccc(C#Cc2ccccc2)c1)Cc1cncc(C#CC2CC2)c1"
  label-value: "Yes"
- smiles-str: "CC(C)NC(=O)N(Cc1ccccc1)Cc1cccc(NC(=O)c2ccccc2)c1"
  label-value: "No"
- smiles-str: "CC(C)NC(=S)N(Cc1ccccc1)Cc1cccc(C#Cc2ccccc2)c1"
  label-value: "Yes"
- smiles-str: "CC(C)NC(=O)N(Cc1cccc(C#Cc2ccc(Cl)cc2)c1)Cc1cccc(C#Cc2cccnc2)c1"
  label-value: "Yes"
- smiles-str: "CC(C)NC(=O)N(Cc1cccc(C#Cc2ccccc2)c1)Cc1cccc(-c2ccccc2)c1"
  label-value: "Yes"
- smiles-str: "CC(C)NC(=O)N(Cc1cccc(C#Cc2ccccc2)c1)Cc1cccc(C(F)(F)F)c1"
  label-value: "Yes"
- smiles-str: "CC(C)NC(=O)N(Cc1cccc(C#Cc2ccc(Cl)cc2)c1)Cc1cccc(C#Cc2ccccn2)c1"
  label-value: "Yes"
- smiles-str: "CC(C)N/C(=N\\C(=O)OC(C)(C)C)N(Cc1ccccc1)Cc1cccc(C#Cc2ccccc2)c1"
  label-value: "No"
- smiles-str: "CC(C)NC(=NC#N)N(Cc1ccccc1)Cc1cccc(C#Cc2ccccc2)c1"
  label-value: "No"
- smiles-str: "CC(C)NC(=O)N(Cc1ccccc1)Cc1cccc(C#Cc2cccc(C(F)(F)F)c2)c1"
  label-value: "Yes"
- smiles-str: "COc1cccc(C#Cc2cccc(CN(Cc3ccccc3)C(=O)NC(C)C)c2)c1"
  label-value: "Yes"
- smiles-str: "O=C(NCc1ccccc1)N(Cc1ccccc1)Cc1cccc(C#Cc2ccccc2)c1"
  label-value: "No"
- smiles-str: "CC(C)NC(=O)N(Cc1cccc(C#Cc2ccccc2)c1)Cc1cncc(C#Cc2ccccc2)c1"
  label-value: "Yes"
- smiles-str: "CC(C)NC(=O)N(Cc1ccccc1)Cc1cccc(Oc2ccccc2)c1"
  label-value: "No"
- smiles-str: "Cc1cccc(CN(Cc2cccc(C#Cc3ccccc3)c2)C(=O)NC(C)C)c1"
  label-value: "Yes"
- smiles-str: "CC(C)NC(=O)N(Cc1cccc(C#Cc2ccc(C(F)(F)F)cc2)c1)Cc1cccc(C#Cc2cccnc2)c1"
  label-value: "Yes"
- smiles-str: "COc1cccc(CN(Cc2cccc(C#Cc3ccccc3)c2)C(=O)NC(C)C)c1"
  label-value: "Yes"
- smiles-str: "CC(C)NC(=O)N(Cc1ccccc1)Cc1cccc(C#Cc2cccc(Cl)c2)c1"
  label-value: "Yes"

----------
Biological target: UniProtKB O14684
Experiment: Inhibition of mPGES1 in LPS-stimulated human whole blood assessed as inhibition of PGE2 production
Type: tissue-based
readout-kind: IC50 (µM)

- smiles-str: "CC(C)NC(=O)N(Cc1cccc(C#Cc2ccncc2)c1)Cc1cccc(C#Cc2ccc(Cl)cc2)c1"
  system: "UniProtKB O14684"
  obs-value: 2.1
- smiles-str: "CC(C)NC(=O)N(Cc1cccc(C#Cc2ccc(Cl)cc2)c1)Cc1cccc(C#Cc2cccnc2)c1"
  system: "UniProtKB O14684"
  obs-value: 9.7
- smiles-str: "CC(C)NC(=O)N(Cc1cccc(C#Cc2ccc(Cl)cc2)c1)Cc1cccc(C#Cc2ccccn2)c1"
  system: "UniProtKB O14684"
  obs-value: 6.7
- smiles-str: "CC(C)NC(=O)N(Cc1cccc(C#Cc2ccc(C(F)(F)F)cc2)c1)Cc1cccc(C#Cc2cccnc2)c1"
  system: "UniProtKB O14684"
  obs-value: 7.7
